assay: Pharmacokinetics of rivaroxaban in rats after avitinib or gefitinib pretreatment; type: in vivo, Sprague–Dawley (SD) rats; details: male, Sprague-Dawley, rat, plasma, oral, plasma concentration of rivaroxaban, 6 h; avitinib group, Mean

{"columns": ["chemical string", "concentration at 6 h"],
 "data": [
  ["O=C(NC[C@H]1CN(c2ccc(N3CCOCC3=O)cc2)C(=O)O1)c1ccc(Cl)s1", "538 ng/mL"]
]}

---

Experiment: Pharmacokinetics of rivaroxaban in rats after avitinib or gefitinib pretreatment
Format: in vivo, Sprague–Dawley (SD) rats
Settings: male, Sprague-Dawley, rat, plasma, po, 10 mg/kg, avitinib group, Mean; read-out: MRT(0-t)
Description: Eighteen male Sprague–Dawley (SD) rats weighing 300 ± 20 g were provided by the Experimental Animal Center of Wenzhou Medical University (Wenzhou, China) and kept under controlled conditions at a temperature of 23 ± 2 °C, relative humidity of 50 ± 10%, and 12 h light–dark cycle. Eighteen male SD rats were randomly assigned to three groups: avitinib, gefitinib, and control, with six rats per group. […] All assays were performed in triplicate, and the results are expressed as mean ± standard deviation. […]
parameter: MRT last (h)

{"columns": ["compound", "parameter", "reported value"],
 "data": [
  ["O=C(NC[C@H]1CN(c2ccc(N3CCOCC3=O)cc2)C(=O)O1)c1ccc(Cl)s1 [rivaroxaban, Rivaroxaban]", "MRT last", 3.79]
]}

---

Assay: Pharmacokinetics of rivaroxaban in rats after avitinib or gefitinib pretreatment
Type: in vivo, Sprague–Dawley (SD) rats
Conditions: male, Sprague-Dawley, rat, plasma, oral, rivaroxaban ng/ml mean, 艾维替尼 (avitinib) group, mean of rats 1-6, time 2
Method: Eighteen male Sprague–Dawley (SD) rats weighing 300 ± 20 g were provided by the Experimental Animal Center of Wenzhou Medical University (Wenzhou, China) and kept under controlled conditions at a temperature of 23 ± 2 °C, relative humidity of 50 ± 10%, and 12 h light–dark cycle. Eighteen male SD rats were randomly assigned to three groups: avitinib, gefitinib, and control, with six rats per group. […] All assays were performed in triplicate, and the results are expressed as mean ± standard deviation. […]
parameter: concentration at 2 h (ng/mL)

{"columns": ["compound", "unit spec", "reported value"],
 "data": [
  ["O=C(NC[C@H]1CN(c2ccc(N3CCOCC3=O)cc2)C(=O)O1)c1ccc(Cl)s1 [rivaroxaban, Rivaroxaban]", "ng/mL", 1650]
]}

---

assay: Pharmacokinetics of rivaroxaban in rats after avitinib or gefitinib pretreatment; type: in vivo, Sprague–Dawley (SD) rats; details: male, Sprague-Dawley, rat, plasma, po, 10 mg/kg, avitinib group, Mean

{"columns": ["chemical string", "Tmax"],
 "data": [
  ["O=C(NC[C@H]1CN(c2ccc(N3CCOCC3=O)cc2)C(=O)O1)c1ccc(Cl)s1", "1.33 h"]
]}

---

test: Pharmacokinetics of rivaroxaban in rats after avitinib or gefitinib pretreatment; format: in vivo, Sprague–Dawley (SD) rats; conditions: male, Sprague-Dawley, rat, plasma, oral, rivaroxaban ng/ml mean, 艾维替尼 (avitinib) group, mean of rats 1-6, time 6

{"columns": ["chemical string", "unit spec", "concentration at 6 h"],
 "data": [
  ["O=C(NC[C@H]1CN(c2ccc(N3CCOCC3=O)cc2)C(=O)O1)c1ccc(Cl)s1", "ng/mL", 538]
]}

---

test: Pharmacokinetics of rivaroxaban in rats after avitinib or gefitinib pretreatment; assay type: in vivo, Sprague–Dawley (SD) rats; conditions: male, Sprague-Dawley, rat, plasma, po, 10 mg/kg, rats, rivaroxaban 10 mg/kg oral; control group (CMC-Na only); read-out: MRT(0–t)
parameter: MRT last (h)

{"columns": ["molecule", "unit spec", "reported value"],
 "data": [
  ["O=C(NC[C@H]1CN(c2ccc(N3CCOCC3=O)cc2)C(=O)O1)c1ccc(Cl)s1 [rivaroxaban, Rivaroxaban]", "h", 3.79]
]}

---

assay: Pharmacokinetics of rivaroxaban in rats after avitinib or gefitinib pretreatment; format: in vivo, Sprague–Dawley (SD) rats; conditions: male, Sprague-Dawley, rat, plasma, oral, rivaroxaban ng/ml mean, 吉非替尼 (gefitinib) group, mean of rats 7-12, time 3

{"columns": ["chemical string", "concentration at 3 h (ng/mL)"],
 "data": [
  ["O=C(NC[C@H]1CN(c2ccc(N3CCOCC3=O)cc2)C(=O)O1)c1ccc(Cl)s1", 7690]
]}

---

test: Pharmacokinetics of rivaroxaban in rats after avitinib or gefitinib pretreatment; assay type: in vivo, Sprague–Dawley (SD) rats; details: male, Sprague-Dawley, rat, plasma, oral, plasma concentration of rivaroxaban, 3 h; gefitinib group, single rats No1-No6

{"columns": ["molecule", "concentration at 3 h, ng/mL"],
 "data": [
  ["O=C(NC[C@H]1CN(c2ccc(N3CCOCC3=O)cc2)C(=O)O1)c1ccc(Cl)s1 [rivaroxaban, Rivaroxaban]", 6480]
]}

---

test: Pharmacokinetics of rivaroxaban in rats after avitinib or gefitinib pretreatment; type: in vivo, Sprague–Dawley (SD) rats; conditions: male, Sprague-Dawley, rat, plasma, po, 10 mg/kg, gefitinib group, Mean; read-out: λz (converted)
parameter: k el (s⁻¹)

{"columns": ["chemical string", "parameter", "unit spec", "reported value"],
 "data": [
  ["O=C(NC[C@H]1CN(c2ccc(N3CCOCC3=O)cc2)C(=O)O1)c1ccc(Cl)s1", "k el", "s⁻¹", "5.17e-05"]
]}

---

Assay: Pharmacokinetics of rivaroxaban in rats after avitinib or gefitinib pretreatment
Format: in vivo, Sprague–Dawley (SD) rats
Conditions: male, Sprague-Dawley, rat, plasma, oral, rivaroxaban ng/ml mean, 吉非替尼 (gefitinib) group, mean of rats 7-12, time 1
Method: Eighteen male Sprague–Dawley (SD) rats weighing 300 ± 20 g were provided by the Experimental Animal Center of Wenzhou Medical University (Wenzhou, China) and kept under controlled conditions at a temperature of 23 ± 2 °C, relative humidity of 50 ± 10%, and 12 h light–dark cycle. Eighteen male SD rats were randomly assigned to three groups: avitinib, gefitinib, and control, with six rats per group. […] All assays were performed in triplicate, and the results are expressed as mean ± standard deviation. […]

{"columns": ["chemical string", "concentration at 1 h [ng/mL]"],
 "data": [
  ["O=C(NC[C@H]1CN(c2ccc(N3CCOCC3=O)cc2)C(=O)O1)c1ccc(Cl)s1", 5580]
]}

---

Assay: Pharmacokinetics of rivaroxaban in rats after avitinib or gefitinib pretreatment
Type: in vivo, Sprague–Dawley (SD) rats
Details: male, Sprague-Dawley, rat, plasma, oral, plasma concentration of rivaroxaban, 6 h; gefitinib group, Mean
Protocol: Eighteen male Sprague–Dawley (SD) rats weighing 300 ± 20 g were provided by the Experimental Animal Center of Wenzhou Medical University (Wenzhou, China) and kept under controlled conditions at a temperature of 23 ± 2 °C, relative humidity of 50 ± 10%, and 12 h light–dark cycle. Eighteen male SD rats were randomly assigned to three groups: avitinib, gefitinib, and control, with six rats per group. […] All assays were performed in triplicate, and the results are expressed as mean ± standard deviation. […]

{"columns": ["molecule", "concentration at 6 h (ng/mL)"],
 "data": [
  ["O=C(NC[C@H]1CN(c2ccc(N3CCOCC3=O)cc2)C(=O)O1)c1ccc(Cl)s1 [rivaroxaban, Rivaroxaban]", 5500]
]}
